Origin of the recorded values: ChEMBL document CHEMBL4689842

Recorded Total Cell Count values for a group of molecules are listed next.
System: HEK-293T
Test: Multiplex assay against HEK293T
Format: toxicity, cell-based
Details: human, 12 h, 10 µM, compound concentration 10 uM, replicate 1
// return a plain number; no unit text

Cl.O=C(O)c1cc(-c2ccc(C3CCNCC3)cc2)c2ccc(-c3ccc(C(F)(F)F)cc3)cc2c1
305

Ask: # query: Total Cell Count of entry COc1cc2ncn(-c3cc(OCc4ccccc4C(F)(F)F)c(C(N)=O)s3)c2cc1OC [GW843682X]
Result: 272

Ask: # query: Total Cell Count of entry "Cc1nc(N2CC[C@H](O)C2)ncc1-c1cc(C(F)(F)F)cc2[nH]ncc12"
Result: 699

Ask: # query: Total Cell Count of entry COc1ccccc1CN[C@H]1C2CCN(CC2)[C@H]1C(c1ccccc1)c1ccccc1 [CP-96345]
Result: 296
